Test system: Staphylococcus aureus
Test: Antibacterial activity against methicillin-resistant Staphylococcus aureus ATCC 43300 assessed as inhibition of bacterial growth measured after 18 hrs by resazurin dye based analysis
Format: functional
Exercise: for every item that follows, state its recorded MIC.

Reported MIC, compound `C[C@]1(C(=O)NCCCNCCCCCCCCCCN)CCC[C@]2(C)c3cc(O)ccc3CC[C@@H]12.O=C(O)C(F)(F)F.O=C(O)C(F)(F)F` : ____
> 44.8 µM

Reported MIC, compound `C[C@]1(C(=O)O)CCC[C@]2(C)c3cc(OC(=O)NCCCNCCCCCCN)ccc3CC[C@@H]12.O=C(O)C(F)(F)F.O=C(O)C(F)(F)F` : ____
> 45.6 µM

Reported MIC, compound `COC(=O)[C@@]1(C)CCC[C@]2(C)c3cc(OC(=O)CCCNCCCCCCNCCCNC(=O)Oc4ccc5c(c4)[C@@]4(C)CCC[C@](C)(C(=O)OC)[C@@H]4CC5)ccc3CC[C@@H]12.O=C(O)C(F)(F)F.O=C(O)C(F)(F)F` : ____
≤ 0.23 µM

Reported MIC, compound `C[C@]1(C(=O)NCCCNCCCCN)CCC[C@]2(C)c3cc(OC(=O)NCCCNCCCCN)ccc3CC[C@@H]12.O=C(O)C(F)(F)F.O=C(O)C(F)(F)F.O=C(O)C(F)(F)F.O=C(O)C(F)(F)F` : ____
> 31.1 µM

Reported MIC, compound `C[C@]1(C(=O)NCCCNCCCCCCCN)CCC[C@]2(C)c3cc(O)ccc3CC[C@@H]12.O=C(O)C(F)(F)F.O=C(O)C(F)(F)F` : ____
> 47.6 µM

Reported MIC, compound `C[C@]1(C(=O)NCCCNCCCCCCCCCCN)CCC[C@]2(C)c3cc(OC(=O)NCCCNCCCCCCCCCCN)ccc3CC[C@@H]12.O=C(O)C(F)(F)F.O=C(O)C(F)(F)F.O=C(O)C(F)(F)F.O=C(O)C(F)(F)F` : ____
26.7 µM

Reported MIC, compound `C[C@]1(C(=O)NCCCNCCCCCCCCCCNCCCNC(=O)[C@@]2(C)CCC[C@]3(C)c4cc(O)ccc4CC[C@@H]23)CCC[C@]2(C)c3cc(O)ccc3CC[C@@H]12.O=C(O)C(F)(F)F.O=C(O)C(F)(F)F` : ____
≤ 0.24 µM

Reported MIC, compound `CCCCCNC(=O)[C@@]1(C)CCC[C@]2(C)c3cc(OC(=O)CCCNCCCCCCCCCCNCCCNC(=O)Oc4ccc5c(c4)[C@@]4(C)CCC[C@](C)(C(=O)NCCCCC)[C@@H]4CC5)ccc3CC[C@@H]12.O=C(O)C(F)(F)F.O=C(O)C(F)(F)F` : ____
≤ 0.2 µM

Reported MIC, compound `C[C@@]12CCC[C@](C)(C(=O)O)[C@H]1CCc1ccc(OC(=O)CCCNCCCCNCCCNC(=O)Oc3ccc4c(c3)[C@@]3(C)CCC[C@](C)(C(=O)O)[C@@H]3CC4)cc12.O=C(O)C(F)(F)F.O=C(O)C(F)(F)F` : ____
> 31 µM

Reported MIC, compound `C[C@]1(C(=O)O)CCC[C@]2(C)c3cc(OC(=O)NCCCNCCCCN)ccc3CC[C@@H]12` : ____
> 47.5 µM

Reported MIC, compound `CN[C@H](CC(C)C)C(=O)N[C@H]1C(=O)N[C@@H](CC(N)=O)C(=O)N[C@H]2C(=O)N[C@H]3C(=O)N[C@H](C(=O)N[C@H](C(=O)O)c4cc(O)cc(O)c4-c4cc3ccc4O)[C@H](O)c3ccc(c(Cl)c3)Oc3cc2cc(c3O[C@@H]2O[C@H](CO)[C@@H](O)[C@H](O)[C@H]2O[C@H]2C[C@](C)(N)[C@H](O)[C@H](C)O2)Oc2ccc(cc2Cl)[C@H]1O` : ____
0.7 µM

Reported MIC, compound `COC(=O)[C@@]1(C)CCC[C@]2(C)c3cc(OC(=O)CCCNCCCCCCCCCCCCNCCCNC(=O)Oc4ccc5c(c4)[C@@]4(C)CCC[C@](C)(C(=O)OC)[C@@H]4CC5)ccc3CC[C@@H]12.O=C(O)C(F)(F)F.O=C(O)C(F)(F)F` : ____
≤ 0.21 µM

Reported MIC, compound `CCCCCNC(=O)[C@@]1(C)CCC[C@]2(C)c3cc(OC(=O)CCCNCCCCCCCNCCCNC(=O)Oc4ccc5c(c4)[C@@]4(C)CCC[C@](C)(C(=O)NCCCCC)[C@@H]4CC5)ccc3CC[C@@H]12.O=C(O)C(F)(F)F.O=C(O)C(F)(F)F` : ____
≤ 0.21 µM

Reported MIC, compound `C[C@]1(C(=O)O)CCC[C@]2(C)c3cc(OC(=O)NCCCNCCCCCCCN)ccc3CC[C@@H]12.O=C(O)C(F)(F)F.O=C(O)C(F)(F)F` : ____
> 44.7 µM

Reported MIC, compound `CCCCCNC(=O)[C@@]1(C)CCC[C@]2(C)c3cc(OC(=O)CCCNCCCCCCCCNCCCNC(=O)Oc4ccc5c(c4)[C@@]4(C)CCC[C@](C)(C(=O)NCCCCC)[C@@H]4CC5)ccc3CC[C@@H]12.O=C(O)C(F)(F)F.O=C(O)C(F)(F)F` : ____
1.63 µM

Reported MIC, compound `CCCCCNC(=O)[C@@]1(C)CCC[C@]2(C)c3cc(OC(=O)CCCNCCCCCCCCCCCCNCCCNC(=O)Oc4ccc5c(c4)[C@@]4(C)CCC[C@](C)(C(=O)NCCCCC)[C@@H]4CC5)ccc3CC[C@@H]12.O=C(O)C(F)(F)F.O=C(O)C(F)(F)F` : ____
1.56 µM

Reported MIC, compound `COC(=O)[C@@]1(C)CCC[C@]2(C)c3cc(OC(=O)CCCNCCCCCCCNCCCNC(=O)Oc4ccc5c(c4)[C@@]4(C)CCC[C@](C)(C(=O)OC)[C@@H]4CC5)ccc3CC[C@@H]12.O=C(O)C(F)(F)F.O=C(O)C(F)(F)F` : ____
≤ 0.23 µM

Reported MIC, compound `C[C@]1(C(=O)O)CCC[C@]2(C)c3cc(OC(=O)NCCCNCCCCCCCCCCCCN)ccc3CC[C@@H]12.O=C(O)C(F)(F)F.O=C(O)C(F)(F)F` : ____
> 32.8 µM

Reported MIC, compound `C[C@]1(C(=O)NCCCNCCCCCCCCCCCCNCCCNC(=O)[C@@]2(C)CCC[C@]3(C)c4cc(O)ccc4CC[C@@H]23)CCC[C@]2(C)c3cc(O)ccc3CC[C@@H]12.O=C(O)C(F)(F)F.O=C(O)C(F)(F)F` : ____
≤ 0.24 µM
